Data credit: patent US20200055939A1

# target_entity: T1, huMICA*002 alpha 3-his (human)
# T1 construct: whole construct entry: GS, alpha 3 domain, GNS, His8; also called MICA002.His; MICA*002 alpha3 construct
# T1 chain: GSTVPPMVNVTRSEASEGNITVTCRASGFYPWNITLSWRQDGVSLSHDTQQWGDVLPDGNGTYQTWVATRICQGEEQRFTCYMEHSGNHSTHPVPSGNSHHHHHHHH
# procedure_details: SPR, Biacore 8K, antibody on Protein A chip
Reported pKd is given for each of the following binders.
The scale used: pKd is minus the common logarithm of the concentration in molar units.

For orientation, consider the following solved cases.
// returns reported pKd for input 1D5v16 (antibody, IgG1, V domains shown, humanized variant of 1D5) VH: EVQLVQSGAEVKKPGASVKVSCKASGYAFTSQNIYWVRQAPGQGLEWIGYIEPYNVVPMYNPKFKGRVTITRDTSTSTAYLELSSLRSEDTAVYYCARSGSSNFDYWGQGTLVTVSS VL: DIQMTQSPSSLSASVGDRVTITCSASSSISSHYLHWYQQKPGKAPKLLIYRTSNLASGVPSRFSGSGSGTDFTLTISSLQPEDFATYYCQQGSSLPLTFGQGTKVEIK 8.39

Same lookup for 1D5v3 (antibody, IgG1, V domains shown, humanized variant of 1D5) VH: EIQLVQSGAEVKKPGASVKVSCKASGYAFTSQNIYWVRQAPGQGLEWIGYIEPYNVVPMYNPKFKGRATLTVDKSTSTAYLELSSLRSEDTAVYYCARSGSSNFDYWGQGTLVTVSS VL: EIVLTQSPDFQSVTPKEKVTITCSASSSISSHYLHWYQQKPDQSPKLLIYRTSNLASGVPSRFSGSGSGTDYTLTINSLEAEDAATYYCQQGSSLPLTFGQGTKVEIK , please. 8.92

New cases:
// returns reported pKd for input 13A9v6 (antibody, IgG1, V domains shown, humanized variant of 13A9) VH: EVQLVQSGAEVKKPGSSVKVSCKASGYAFTNYLIEWVRQAPGQGLEWIGAINPGSGATNYNEKFKDRATLTADKSTNTAYMELSSLRSEDTAVYFCARFLGNYFDNWGQGTLVTVSS VL: DIQMTQSPSSLSASVGDRVTITCRASGNIHSYLAWYQQKPGKSPKLLVYYAETLADGVPSRFSGSGSGTDYTLTISSLQPEDFATYFCQQFWTTPYTFGQGTKVEIK 8.40
